meta.source: patent US20200325543A1

# Tested on: SOX2
# method-description: Screen of a library of FDA-approved drugs for SOX2 antibody staining in A375 cells treated with PLX4720 and AZD6244
# condition-summary: A375 cells, 5 uM test drug with 1 uM PLX4720 and 0.5 uM AZD6244, 24 h; normalized and geometry-corrected (loess) signal
assay-metric: cor. loess
Respond numerically, and do not add a unit to the figure.

Req: For the compound CC1(C)O[C@@H]2C[C@H]3[C@@H]4C[C@H](F)C5=CC(=O)C=C[C@]5(C)[C@H]4[C@@H](O)C[C@]3(C)[C@]2(C(=O)CO)O1 [FLUNISOLIDE] , what cor. loess is on record?
Resp: 0.6279

Req: For the compound CN(C)c1ccc(C(=C2C=CC(=[N+](C)C)C=C2)c2ccc(N(C)C)cc2)cc1 [GENTIAN VIOLET] , what cor. loess is on record?
Resp: 1.077

Req: For the compound Cc1ccc(C(=O)Nc2ccc(CN3CCN(C)CC3)c(C(F)(F)F)c2)cc1C#Cc1cnc2cccnn12 [Ponatinib (AP24534), Ponatinib] , what cor. loess is on record?
Resp: 0.6841

Req: For the compound O=C(CCCCCCNC(=O)c1cnc(N(c2ccccc2)c2ccccc2)nc1)NO [Rocihnostat (ACY-1215), Rocihnostat] , what cor. loess is on record?
Resp: 0.6577

----------
# Tested on: SOX2
# method-description: Screen of a library of FDA-approved drugs for SOX2 antibody staining in A375 cells treated with PLX4720 and AZD6244
# condition-summary: Z-test against negative controls (DMSO); single dose 5 uM
assay-metric: z
Respond numerically, and do not add a unit to the figure.

Req: For the compound COc1ccc2cc1Oc1ccc(cc1)C[C@H]1c3cc(c(OC)cc3CCN1C)Oc1c(OC)c(OC)cc3c1[C@H](C2)N(C)CC3 [Tetrandrine] , what z is on record?
Resp: 7.2

Req: For the compound Cc1oncc1C(=O)Nc1ccc(C(F)(F)F)cc1 [LEFLUNOMIDE] , what z is on record?
Resp: 4.346

Req: For the compound CCN(CC)CCNC(=O)c1c(C)[nH]c(/C=C2\C(=O)Nc3ccc(F)cc32)c1C [Sunitinib] , what z is on record?
Resp: 5.758

Req: For the compound COC(=O)C[C@](O)(CCCC(C)(C)O)C(=O)O[C@@H]1C(OC)=C[C@]23CCCN2CCc2cc4c(cc2[C@H]13)OCO4 [Homoharringtonine] , what z is on record?
Resp: 8.354

Req: For the compound CC(C)(C)c1ccc(C(O)CCCN2CCC(C(O)(c3ccccc3)c3ccccc3)CC2)cc1 (centres unmarked) [TERFENADINE] , what z is on record?
Resp: 3.539
